Reported IC50 values follow for various compounds
Molecular target: 5-lipoxygenase (Homo sapiens)
Construct: Human granulocytes are used as a source of the 5-lipoxygenase; endogenous in cells
Sequence (P09917 1-674): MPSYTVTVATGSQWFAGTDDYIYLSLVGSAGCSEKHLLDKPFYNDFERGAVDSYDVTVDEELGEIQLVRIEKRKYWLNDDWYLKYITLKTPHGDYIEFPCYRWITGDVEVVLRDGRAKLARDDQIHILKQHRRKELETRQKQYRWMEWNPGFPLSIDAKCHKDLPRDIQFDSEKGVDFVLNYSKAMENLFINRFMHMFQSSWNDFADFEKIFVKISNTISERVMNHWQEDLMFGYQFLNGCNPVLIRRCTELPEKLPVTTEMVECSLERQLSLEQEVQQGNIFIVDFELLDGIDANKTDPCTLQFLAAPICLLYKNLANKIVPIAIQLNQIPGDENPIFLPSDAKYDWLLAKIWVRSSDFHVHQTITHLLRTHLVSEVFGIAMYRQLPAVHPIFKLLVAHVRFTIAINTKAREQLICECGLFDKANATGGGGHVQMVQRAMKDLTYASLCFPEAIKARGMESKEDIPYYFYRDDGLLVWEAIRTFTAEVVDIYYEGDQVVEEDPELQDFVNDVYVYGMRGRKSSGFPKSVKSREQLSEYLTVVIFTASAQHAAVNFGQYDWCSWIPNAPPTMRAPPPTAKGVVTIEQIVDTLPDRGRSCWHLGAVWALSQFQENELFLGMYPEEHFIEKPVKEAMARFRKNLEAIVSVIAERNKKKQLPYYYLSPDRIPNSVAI
Test: In vitro test system for determining the inhibition of 5-lipoxygenase (LTB4 from human granulocytes, A 23187, ELISA)
Conditions: human granulocytes; read-out: 5-LO IC50
Experimental Endpoint: IC50 (nM)

compound=CCOC(=O)c1c(-c2ccncc2)c2n(c1-c1ccc(F)cc1)CCC2 result=2000
compound="CCOC(=O)c1c(-c2ccncc2)c(-c2ccc(F)cc2)n2c1SCC2 [Example 10A]" result=65
compound=Fc1ccc(-c2c(-c3ccncc3)cc3n2CCS3)cc1 result=2400
compound=Cc1c(-c2ccncc2)c(-c2ccc(F)cc2)n2c1CCC2 result=2400

====

Reported pIC50 values follow for various compounds
test system: TNFα; assay: In vitro test procedure using human whole blood, LPS-stimulated, TNFα by ELISA; assay type: cell-based; conditions: Homo sapiens; whole-blood method
pIC50: −log10 of the molar value.
Experimental Endpoint: pIC50

compound=OCc1c(-c2ccncc2)c(-c2ccc(F)cc2)n2c1SCC2 result=4.35
compound=OCc1c(-c2ccncc2)c(-c2ccc(F)cc2)n2c1CCC2 result=4.55
compound="CCOC(=O)c1c(-c2ccncc2)c(-c2ccc(F)cc2)n2c1SCC2 [Example 10A]" result=4.52
compound=CCOC(=O)c1c(-c2ccncc2)c(-c2ccc(Cl)s2)n2c1CCC2 result=4.42
compound=Fc1ccc(-c2c(-c3ccncc3)cc3n2CCCC3)cc1 result=4.43
compound=Cc1c(-c2ccncc2)c(-c2ccc(F)cc2)n2c1CCCC2 result=4.41
compound=CCOC(=O)c1c(-c2ccncc2)c(-c2ccc(F)cc2)n2c1CCC2 result=4.52
compound=Cc1c(-c2ccncc2)c(-c2ccc(F)cc2)n2c1CCC2 result=4.39
compound=O=C(O)c1c(-c2ccncc2)c(-c2cccs2)n2c1CCC2 result=4.32
compound=O=C(O)c1c(-c2ccncc2)c(-c2ccc(F)cc2)n2c1CCC2 result=4.80
compound=Cc1c(-c2ccncc2)c(-c2ccc(F)cc2)n2c1SCC2 result=4.39

====

Reported pIC50 values follow for various compounds
target: COX2 (from sheep placenta) (Ovis aries, UniProt P79208); construct: COX2 (from sheep placenta) is preincubated at 4° C. with test substance for 10 min; from tissue; host or cells: sheep placenta; assay: In vitro test system for determining the inhibition of cyclooxygenase-2 (COX2 from sheep placenta, PGE2 ELISA); assay type: biochemical; details: read-out: COX-2 IC50
Sequence (P79208 17-603): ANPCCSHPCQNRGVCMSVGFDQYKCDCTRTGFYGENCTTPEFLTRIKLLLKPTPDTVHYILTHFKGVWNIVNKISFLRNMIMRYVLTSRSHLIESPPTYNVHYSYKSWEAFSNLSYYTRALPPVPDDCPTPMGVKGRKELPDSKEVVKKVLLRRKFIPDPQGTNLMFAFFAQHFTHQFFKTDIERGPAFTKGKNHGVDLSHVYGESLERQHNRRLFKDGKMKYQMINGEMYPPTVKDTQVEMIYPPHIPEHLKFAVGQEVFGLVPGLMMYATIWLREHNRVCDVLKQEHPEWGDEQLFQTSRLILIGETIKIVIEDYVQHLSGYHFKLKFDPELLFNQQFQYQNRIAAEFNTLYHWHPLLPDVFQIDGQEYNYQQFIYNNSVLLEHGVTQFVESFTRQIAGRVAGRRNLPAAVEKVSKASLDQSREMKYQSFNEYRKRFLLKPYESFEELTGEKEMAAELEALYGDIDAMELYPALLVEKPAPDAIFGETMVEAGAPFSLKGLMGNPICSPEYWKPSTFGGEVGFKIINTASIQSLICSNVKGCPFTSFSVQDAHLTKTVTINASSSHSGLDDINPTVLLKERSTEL
pIC50: −log10 of the molar value.
Experimental Endpoint: pIC50

compound=Fc1ccc(-c2c(-c3ccncc3)cc3n2CCC3)cc1 measured_target="COX2 (from sheep placenta) (Ovis aries, UniProt P79208)" experimental_endpoint=pIC50 result=5.24
compound="CCOC(=O)c1c(-c2ccc(F)cc2)c(-c2ccncc2)n2c1CCC2 [Example 19A]" measured_target="COX2 (from sheep placenta) (Ovis aries, UniProt P79208)" experimental_endpoint=pIC50 result=5.26
compound="CCOC(=O)c1c(-c2ccncc2)c(-c2ccc(F)cc2)n2c1SCC2 [Example 10A]" measured_target="COX2 (from sheep placenta) (Ovis aries, UniProt P79208)" experimental_endpoint=pIC50 result=5.21
compound=OCc1c(-c2ccncc2)c(-c2ccc(F)cc2)n2c1CCC2 measured_target="COX2 (from sheep placenta) (Ovis aries, UniProt P79208)" experimental_endpoint=pIC50 result=5.24
compound=CC1(C)COc2c(-c3ccncc3)c(-c3ccc(F)cc3)cn2C1 measured_target="COX2 (from sheep placenta) (Ovis aries, UniProt P79208)" experimental_endpoint=pIC50 result=5.40
compound=Cc1c(-c2ccncc2)c(-c2ccc(F)cc2)n2c1CCC2 measured_target="COX2 (from sheep placenta) (Ovis aries, UniProt P79208)" experimental_endpoint=pIC50 result=5.47
compound=Fc1ccc(-c2cc3n(c2-c2ccncc2)CCC3)cc1 measured_target="COX2 (from sheep placenta) (Ovis aries, UniProt P79208)" experimental_endpoint=pIC50 result=5.82
compound=Fc1ccc(-c2c(-c3ccncc3)cc3n2CCCC3)cc1 measured_target="COX2 (from sheep placenta) (Ovis aries, UniProt P79208)" experimental_endpoint=pIC50 result=5.80

====

Reported COX-1 percentage inhibition values follow for various molecules
molecular target: cyclooxygenase-1 (Homo sapiens, UniProt P23219); construct: endogenous in cells; host or cells: human platelets isolated on a discontinuous Percoll gradient; test: In vitro test system for determining the inhibition of cyclooxygenase-1 (PGE2 from human platelets, calcium ionophore, ELISA); format: cell-based; conditions: at 10 μmol
Sequence (P23219 24-599): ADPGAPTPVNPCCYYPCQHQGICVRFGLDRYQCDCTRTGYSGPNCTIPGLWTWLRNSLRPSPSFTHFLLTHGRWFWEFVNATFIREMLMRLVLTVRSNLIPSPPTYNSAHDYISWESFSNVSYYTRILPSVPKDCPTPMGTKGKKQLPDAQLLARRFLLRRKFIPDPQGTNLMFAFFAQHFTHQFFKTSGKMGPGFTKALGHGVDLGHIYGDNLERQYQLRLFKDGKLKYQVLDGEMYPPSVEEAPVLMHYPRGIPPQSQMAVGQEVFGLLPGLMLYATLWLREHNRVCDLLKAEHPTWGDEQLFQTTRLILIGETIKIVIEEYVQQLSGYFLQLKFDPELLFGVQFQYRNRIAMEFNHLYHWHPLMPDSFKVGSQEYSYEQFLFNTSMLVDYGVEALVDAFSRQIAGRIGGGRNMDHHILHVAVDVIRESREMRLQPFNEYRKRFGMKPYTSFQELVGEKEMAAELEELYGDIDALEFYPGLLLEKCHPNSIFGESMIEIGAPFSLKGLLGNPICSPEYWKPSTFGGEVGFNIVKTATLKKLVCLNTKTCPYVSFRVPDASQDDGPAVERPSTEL
Experimental Endpoint: COX-1 percentage inhibition

item_smiles=O=C(O)c1c(-c2ccncc2)c(-c2ccc(F)cc2)n2c1SCC2 experimental_endpoint="COX-1 percentage inhibition" result=10/33%
item_smiles=Cc1c(-c2ccncc2)c(-c2ccc(F)cc2)n2c1SCC2 experimental_endpoint="COX-1 percentage inhibition" result=10/45%
item_smiles=Cc1c(-c2ccncc2)c(-c2ccc(F)cc2)n2c1CCCC2 experimental_endpoint="COX-1 percentage inhibition" result=10/48%
item_smiles=CCOC(=O)c1c(-c2ccncc2)c(-c2ccc(Cl)s2)n2c1CCC2 experimental_endpoint="COX-1 percentage inhibition" result=10/11%
item_smiles=O=C(O)c1c(-c2ccncc2)c(-c2cccs2)n2c1CCC2 experimental_endpoint="COX-1 percentage inhibition" result=10/40%
item_smiles=Fc1ccc(-c2c(-c3ccncc3)cc3n2CCCC3)cc1 experimental_endpoint="COX-1 percentage inhibition" result=10/35%
item_smiles=CC1(C)CSc2c(-c3ccncc3)c(-c3ccc(F)cc3)cn2C1 experimental_endpoint="COX-1 percentage inhibition" result=83%

====

Reported inhibition at 10 µM values follow for various compounds
test system: TNFα; assay: In vitro test procedure using PBMCs, LPS-stimulated, TNFα by ELISA; assay type: cell-based; settings: Homo sapiens, 4 h; PBMC, at 10 μmol; read-out: TNFα percentage inhibition
Experimental Endpoint: inhibition at 10 µM (%)

compound=O=C(O)c1c(-c2ccncc2)c(-c2ccc(F)cc2)n2c1CCC2 experimental_endpoint="inhibition at 10 µM" result=37
compound=OCc1c(-c2ccncc2)c(-c2ccc(F)cc2)n2c1SCC2 experimental_endpoint="inhibition at 10 µM" result=44
compound=CCOC(=O)c1c(-c2ccncc2)c(-c2ccc(F)cc2)n2c1CCC2 experimental_endpoint="inhibition at 10 µM" result=13
compound=CCOC(=O)c1c(-c2ccncc2)c2n(c1-c1ccc(F)cc1)CCC2 experimental_endpoint="inhibition at 10 µM" result=60
compound=Fc1ccc(-c2c(-c3ccncc3)cc3n2CCC3)cc1 experimental_endpoint="inhibition at 10 µM" result=88
compound="CCOC(=O)c1c(-c2ccc(F)cc2)c(-c2ccncc2)n2c1CCC2 [Example 19A]" experimental_endpoint="inhibition at 10 µM" result=60
compound=CC1(C)CSc2c(-c3ccncc3)c(-c3ccc(F)cc3)cn2C1 experimental_endpoint="inhibition at 10 µM" result=79
compound=Fc1ccc(-c2cc3n(c2-c2ccncc2)CCC3)cc1 experimental_endpoint="inhibition at 10 µM" result=34
compound=CCOC(=O)c1c(-c2ccncc2)c(-c2ccc(Cl)s2)n2c1CCC2 experimental_endpoint="inhibition at 10 µM" result=38
compound=CC1(C)COc2c(-c3ccncc3)c(-c3ccc(F)cc3)cn2C1 experimental_endpoint="inhibition at 10 µM" result=42
compound=Fc1ccc(-c2c(-c3ccncc3)cc3n2CCCC3)cc1 experimental_endpoint="inhibition at 10 µM" result=65

====

biological target: cyclooxygenase-1 (Homo sapiens, UniProt P23219); construct: endogenous in cells; assay: In vitro test system for determining the inhibition of cyclooxygenase-1 (PGE2 from human platelets, calcium ionophore, ELISA); settings: human platelets; read-out: COX-1 IC50
Lab note - cut at 3000 nM for IC50: satisfied if strictly below, not satisfied if not.

compound="CCOC(=O)c1c(-c2ccc(F)cc2)c(-c2ccncc2)n2c1CCC2 [Example 19A]" measured_target="cyclooxygenase-1 (Homo sapiens, UniProt P23219)" class_name=satisfied
compound=CC1(C)CSc2c(-c3ccncc3)c(-c3ccc(F)cc3)cn2C1 measured_target="cyclooxygenase-1 (Homo sapiens, UniProt P23219)" class_name="not satisfied"
compound=Cc1c(-c2ccc(F)cc2)c(-c2ccncc2)n2c1CCC2 measured_target="cyclooxygenase-1 (Homo sapiens, UniProt P23219)" class_name=satisfied
compound=Fc1ccc(-c2c(-c3ccncc3)cc3n2CCS3)cc1 measured_target="cyclooxygenase-1 (Homo sapiens, UniProt P23219)" class_name=satisfied
compound=Fc1ccc(-c2cc3n(c2-c2ccncc2)CCC3)cc1 measured_target="cyclooxygenase-1 (Homo sapiens, UniProt P23219)" class_name=satisfied
compound="CCOC(=O)c1c(-c2ccncc2)c(-c2ccc(F)cc2)n2c1SCC2 [Example 10A]" measured_target="cyclooxygenase-1 (Homo sapiens, UniProt P23219)" class_name="not satisfied"
compound=Cc1c(-c2ccncc2)c(-c2ccc(F)cc2)n2c1CCC2 measured_target="cyclooxygenase-1 (Homo sapiens, UniProt P23219)" class_name=satisfied
